assay: Effect of comonomers on LCST (slope of LCST vs. mol %); assay type: physicochemical; settings: comonomer in NIPAAm-based temperature-responsive polymers
I'd appreciate it if you could supply Effect on LCST values for the items below.
Field: numeric (° C./mol %). Do not append units.

Consider the molecule C=CC(=O)OC1C(=O)OCC1(C)C (stereo not shown) [DBLA, dimethyl butyrolactone acrylate] and give its measured Effect on LCST.
−1.8

Consider the molecule C=CC(=O)OC(C)(C)C [Tert-butyl acrylate, tert-butyl acrylate] and give its measured Effect on LCST.
−0.69

Consider the molecule C=CC(=O)NC(C)(C)C [Tert-butyl acrylamide, tert-butyl acrylamide] and give its measured Effect on LCST.
−0.41

Consider the molecule C=CC(=O)NC1C(=O)OCC1(C)C (stereo not shown) [DBLAAm, dimethyl butyrolactone acrylamide] and give its measured Effect on LCST.
−0.51

Consider the molecule C=CC(=O)OCCCC [Butyl acrylate, butyl acrylate] and give its measured Effect on LCST.
−0.44

Consider the molecule C=C(C)C(=O)OCCCC [BMA, butyl methacrylate] and give its measured Effect on LCST.
−0.62
